study target: MERS RBD-hFc (MERS-CoV (isolate EMC/2012))
protocol: SPR Biacore, captured mAb, 37 C
readout kind: Kd (nM)
Write the answer as a number in nM, unit excluded.

Query block: Would you mind telling me what Kd value was observed for H2aM15279N (antibody, V domains shown) VH: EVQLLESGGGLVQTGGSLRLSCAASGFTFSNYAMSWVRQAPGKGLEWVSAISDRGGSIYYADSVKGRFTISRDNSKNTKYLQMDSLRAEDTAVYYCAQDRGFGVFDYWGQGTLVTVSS VL: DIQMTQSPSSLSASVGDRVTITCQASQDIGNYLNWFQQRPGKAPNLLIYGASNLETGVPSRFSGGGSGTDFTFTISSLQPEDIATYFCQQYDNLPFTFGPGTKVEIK ?
Result block: 0.32

Query block: Would you mind telling me what Kd value was observed for H1H15188P (antibody, V domains shown) VH: QVQLVQSGAEVKKPGSSVKVSCKASGGSFSVYAISWVRQAPGQGLEWMGGIIPIFGTANYAQKFQDRFTITTDESTSTAYMELSSLRSEDTAMYYCAREGDIVVLPAGKGGMDVWGQGTTVTVSS VL: DIVMTQSPLSLPVTPGEPASISCRSSQSLLHGNGYNYLDWYLQKPGQSPQLLIYLVSHRASGVPDRFSGSGSGTDFTLKISRVEAEDVGVYYCMQALQSPWTFGQGTKVEIK ?
Result block: 0.167

Query block: Would you mind telling me what Kd value was observed for H2aM15270N (antibody, V domains shown) VH: EVQLLESGGGLEQPGGSLRLSCAASGFTFSSYAMIWVRQAPGKGLEWVSTISGSGVNTYYADSVKGRFTISRDNSKNTLHLQMNSLRAEDTAVYHCAKEGLDCANGVCYNYYGMDVWGQGTTVTVSS VL: DIQMTQSPSSLSASVGDRVTITCRASQSINSFLNWYHQKPGKAPKFLIYSASNLQSGVPSRFSGSGSGTDFTLTISSLQPEDFSTYYCQQSYSIPLTFGGGTKVEIK ?
Result block: 0.651

Query block: Would you mind telling me what Kd value was observed for H2bM15292N (antibody, V domains shown) VH: QVQLVQSGAEVKKPGSSVKVSCKASGGTFNNYAISWVRQAPGQGLEWMGGIIPFFGTTNYAQKFQDRVTITSDDSTITAYMELSRLRSEDTAVYYCARDEPRRDGYNYYHYYYMDVWGQGTTVTVSS VL: DIQMTQSPSSLSASVGDRVTITCRASQSINSYLNWYQQKPGKAPNLLIYAASSLQSGVPSRFSGSGSGTDFTLTISSLHPEDFATYYCQQSYSTPPITFGQGTRLEIK ?
Result block: 0.963

Query block: Would you mind telling me what Kd value was observed for H1H15208P (antibody, V domains shown) VH: EVQLVESGGDLVQPGGSLRLSCTASGFTFSNYEMNWVRQAPEKGLDWVSFISSSGGAIYYADSVKGRFTISRDNAKNSLYLQMNSLRAEDSAIYFCARSDSGGNSRYWGQGTLVTVSS VL: DIQMTQSPSSVSASVGDRVTVTCRASQDISNWLVWYQQKPGKAPKFLIYAASSLQSGVPSRFSGSGSGTDFTLTISSLQPEDFATYYCQQANSFPPTFGGGTKVEIK ?
Result block: 1.01

Values from patent US20190351049A1
